Data origin: patent US9458104B2

Biological target: RORγ (UniProt P51449)
Construct: hRORg-LBD|aa259-518|NP_005051.2; hRORgt|aa1-497|NP_001001523 (RORg, t isoform, 497aa); mRORg-LBD|aa264-516|NP_035411
Assay type: cell-based
Conditions: renilla normalised (RENnorm) luciferase, 293T cells, 16 h
Listed compounds paired with reported pIC50 (REN)
experimental.endpoint: pIC50 (REN)

- CC(C)(C)NS(=O)(=O)c1ccc(-c2c(Cl)c(C(=O)NC34CCC(C(=O)O)(CC3)CC4)nn2CC2CCCCC2)c(Cl)c1Cl: 7.6
- Cn1c(C(=O)N[C@H]2C[C@H](C(=O)O)C2)cc(-c2cc(C(C)(C)C)nc(C3(C)CC3)n2)c1CC1CCCCC1: 6.7
- Cc1c(C(=O)N[C@H]2C[C@H](C(=O)O)C2)c(C)n(-c2cc(C(C)(C)O)cc(C3(C)CC3)c2)c1CC1CCCCC1: 6.7
- Cn1c(C(=O)NC2CCS(=O)(=O)CC2)cc(-c2ccc(S(=O)(=O)NC(C)(C)C)c3ccccc23)c1CC1CCCCC1: 7.9
- Cn1c(C(=O)NCCC(C)(C)C(=O)O)cc(-c2ccc(S(=O)(=O)NC(C)(C)C)c(C(C)(C)C)c2)c1CC1CCCCC1: 7.0
- CC(C)(C)NS(=O)(=O)c1ccc(-c2cc(C(=O)NC3CCS(=O)(=O)CC3)nn2CC2CCCCC2)c(Cl)c1Cl: 7.6

---

Biological target: RORγ (UniProt P51449)
Construct: hRORg-LBD|aa259-518|NP_005051.2; hRORgt|aa1-497|NP_001001523 (RORg, t isoform, 497aa); mRORg-LBD|aa264-516|NP_035411
Sequence (P51449 1-518): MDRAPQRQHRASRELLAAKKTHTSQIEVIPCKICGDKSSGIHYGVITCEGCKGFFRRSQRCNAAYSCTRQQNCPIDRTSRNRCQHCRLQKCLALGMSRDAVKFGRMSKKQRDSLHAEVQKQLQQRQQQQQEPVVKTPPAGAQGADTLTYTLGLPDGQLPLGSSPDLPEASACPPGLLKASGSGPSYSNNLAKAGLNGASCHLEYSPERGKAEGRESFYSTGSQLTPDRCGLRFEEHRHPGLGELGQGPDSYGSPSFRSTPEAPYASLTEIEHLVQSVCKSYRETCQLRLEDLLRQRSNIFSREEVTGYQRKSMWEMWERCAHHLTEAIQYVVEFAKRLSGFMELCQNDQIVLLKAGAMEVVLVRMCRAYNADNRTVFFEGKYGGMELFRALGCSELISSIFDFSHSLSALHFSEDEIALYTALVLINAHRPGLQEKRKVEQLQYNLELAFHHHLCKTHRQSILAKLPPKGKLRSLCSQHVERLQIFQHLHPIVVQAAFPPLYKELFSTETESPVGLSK
Format: cell-based
Conditions: renilla normalised (RENnorm) luciferase, 293T cells, 16 h
Listed molecules paired with reported pIC50 (REN)
experimental.endpoint: pIC50 (REN)

* CC(C)(C)c1cc(-c2cc(C(=O)NC3CCOCC3)nn2CC2CCCCC2)cc(C2(C)CC2)c1 [100/1] | 7.4
* Cn1c(C(=O)N[C@H]2CC[C@H](C(=O)O)CC2)cc(-c2cc(C(C)(C)C)cc(C3(C)CC3)c2)c1CC1CCCCC1 [8/11] | 7.4
* Cn1c(C(=O)NC23CCC(C(=O)O)(CC2)CC3)cc(-c2ccc(S(=O)(=O)NC(C)(C)C)c3ccccc23)c1CC1CCCCC1 [8/8] | 8.4
* Cn1c(C(=O)NC23CCC(C(=O)O)(CC2)CC3)cc(-c2cc(C(C)(C)C)cc(C3(C)CC3)c2)c1CC1CCCCC1 [8/14] | 7.6
* CCS(=O)(=O)c1cc(-c2cc(C(C)(C)C)cc(C(C)(C)C)c2)n(CC2CCCCC2)c1C [Example 325/1] | 6.3
* CC(C)(C)NS(=O)(=O)c1ccc(-c2cc(C(=O)NC3CCOCC3)nn2CC2CCCCC2)cc1C(C)(C)C [100/2] | 7.4
* Cc1c(C(=O)NC2CCOCC2)cn(-c2cc(C(C)(C)C)cc(C3(C)CC3)c2)c1C(O)C1CCCCC1 (centres unmarked) [Example 15] | 7.0
* Cn1c(C(=O)N[C@H]2C[C@H](C(=O)O)C2)cc(-c2cc(C(C)(C)C)cc(C3(C)CC3)c2)c1CC1CCCCC1 [Example 8] | 7.7
* CC(C)(C)NS(=O)(=O)c1ccc(-c2cc(C(=O)NC3CCOCC3)nn2CC2CCCCC2)cc1C(F)(F)F [100/5] | 7.2
* CC(C)(C)NS(=O)(=O)c1ccc(-c2cc(C(=O)N[C@H]3C[C@H](C(=O)O)C3)nn2CC2CCCCC2)c(Cl)c1Cl [Example 112] | 6.9
* COC(C)(C)c1cc(-n2nc(C(=O)NC3COC3)c(Cl)c2CC2CCCCC2)cc(C(C)(C)C)c1 [104/4] | 6.6
* Cn1c(C(=O)NC2CCS(=O)(=O)CC2)cc(-c2ccc(S(=O)(=O)NC(C)(C)C)c3ccccc23)c1C(=O)C1CCCCC1 [26/4] | 7.8
* Cc1c(C(=O)NCCC(C)(C)C(=O)O)c(C#N)n(-c2ccc(S(=O)(=O)NC(C)(C)C)c(C(F)(F)F)c2)c1CC1CCCCC1 [Example 10] | 6.9
